system: minus strand HCV RNA; format: biochemical, Hepatitis C virus; details: minus strand (−) HCV site, 50 mM Tris-Cl, pH 8.0, 40 mM Mg2+ at 37°, trace substrate, enzymatic nucleic acid concentration of 500 nM or greater
[invAb] = 3' inverted deoxyabasic cap; [2NH2-N] = 2'-deoxy-2'-amino ribonucleotide (N: the base); [amino-N] = 2'-deoxy-2'-amino nucleotide (N: the base); [I] = hypoxanthine (inosine); m = 2'-O-methyl; r = 2'-OH (RNA)
Let's look at some substances and their measured % Substrate Cleaved in 3 hours.

substance | % Substrate Cleaved in 3 hours / %
22978 (AGGAGGAGGCTAGCTACAACGAGAGAGAGN; 3' inverted abasic cap (B); Description of Artificial Sequence: Nucleic Acid; misc_feature (1)..(7): 2'-O-Methyl; misc_feature (23)..(29): 2'-O-Methyl; misc_feature (30)..(30): n stands for inverted deoxyabasic derivative) [compound 22978] | 61.60
22980 (GUUGUGAGGCTAGCTACAACGAUUGGAGGN; 3' inverted abasic cap (B); Description of Artificial Sequence: Nucleic Acid; misc_feature (30)..(30): n stands for inverted deoxyabasic derivative; misc_feature (1)..(7): 2'-O-Methyl; misc_feature (23)..(29): 2'-O-Methyl) [compound 22980] | 34.60
22728 (GGUAGGUUGAUGGCAUGCACUAUGCGCGAAGUGGC; sugars from the 5' end mmmmmmmmrrrmmmmmrmmmmmmmmmrmmmmmmmm, [invAb] at 3' end, backbone not given here) [compound 22728] | 81.06
22979 (AGGAGUAGGCTAGCTACAACGAGUGGAGGN; 3' inverted abasic cap (B); Description of Artificial Sequence: Nucleic Acid; misc_feature (30)..(30): n stands for inverted deoxyabasic derivative; misc_feature (1)..(7): 2'-O-Methyl; misc_feature (23)..(29): 2'-O-Methyl) [compound 22979] | 85.53
22950 (AGGAUGACUGAUGAGGCCGUUAGGCCGAAAGAGAGG; 2'-O-methyl at 1, 2, 3, 4, 5, 6, 7, 15, 16, 17, 18, 19, 20, 21, 22, 23, 24, 25, 26, 31, 32, 33, 34, 35, 36, [invAb] at 3' end, other sugars and backbone not given here) [compound 22950] | 83.43
22976 (AAGAGGAGGCTAGCTACAACGAGCGGCGAN; 3' inverted abasic cap (B); Description of Artificial Sequence: Nucleic Acid; misc_feature (30)..(30): n stands for inverted deoxyabasic derivative; misc_feature (1)..(7): 2'-O-Methyl; misc_feature (23)..(29): 2'-O-Methyl) [compound 22976] | 66.06
22780 (GACACUGCUGAUGAGGCCGUUAGGCCGAANACACCA; ribozyme; 2'-O-methyl at 1, 2, 3, 4, 5, 6, 7, 15, 16, 17, 18, 19, 20, 21, 22, 23, 24, 25, 26, 31, 32, 33, 34, 35, 36, [I] at 30, [invAb] at 3' end, other sugars and backbone not given here) [compound 22780] | 87.33
22724 (GGAUGGUUGAUGGCAUGCACUAUGCGCGAGACAGG; sugars from the 5' end mmmmmmmmrrrmmmmmrmmmmmmmmmrmmmmmmmm, [invAb] at 3' end, backbone not given here) [compound 22724] | 65.16
22752 (AAGAGGAGCCGAAAGGCGAGUGAGGUCUGCGGCGA; 2'-O-methyl at 1, 2, 3, 4, 5, 6, 7, 8, 9, 10, 11, 12, 13, 14, 15, 16, [amino-N] at 17, 27, [invAb] at 3' end, other sugars and backbone not given here) [compound 22752] | 27.83
22783 (UGUGCAGCUGAUGAGGCCGUUAGGCCGAANGAUGAA; 2'-O-methyl at 1, 2, 3, 4, 5, 6, 7, 15, 16, 17, 18, 19, 20, 21, 22, 23, 24, 25, 26, 31, 32, 33, 34, 35, 36, [I] at 30, [invAb] at 3' end, other sugars and backbone not given here) [compound 22783] | 86.93
22781 (GAGAUGACUGAUGAGGCCGUUAGGCCGAANGCGAAG; 2'-O-methyl at 1, 2, 3, 4, 5, 6, 7, 15, 16, 17, 18, 19, 20, 21, 22, 23, 24, 25, 26, 31, 32, 33, 34, 35, 36, [I] at 30, [invAb] at 3' end, other sugars and backbone not given here) [compound 22781] | 70.67
22753 (UGGAAGAGCCGAAAGGCGAGUGAGGUCUACUGAGA; 2'-O-methyl at 1, 2, 3, 4, 5, 6, 7, 8, 9, 10, 11, 12, 13, 14, 15, 16, [2NH2-N] at 17, 27, [invAb] at 3' end, other sugars and backbone not given here) [compound 22753] | 89.39
